# Test system: MS2 coat protein
# method: apparent KD of MS2 coat protein; higher = weaker reporter binding
# test context: Eterna round: R107; input ligand: arginine 13.2 mM
value type: apparent KD of MS2 coat protein

seq text	value type	endpoint value
UUUGCACAUGAGGAUCACCCAUGUACAGAUACCAGCCUCAUCUACGGCCCUUGGCAGCUGAGACAAUGGUGACAUGAUGGGCUUU [Istein]	apparent KD of MS2 coat protein	16 nM
AGCCCUGUACUAGAUACCAGCUACAUGAGGAUCACCCAUGUGCGUCAAGACUGACUGUGUGGCCCUUGGCAGCUGCUCGCAUGUA [Exclusion - Theophylline B (Freestyle 1)]	apparent KD of MS2 coat protein	50.6 nM
CGGCCCUCACCUGAGGAUCACCCAGGUGAUACCAGCCUGGAAACAGGCCCUUGGCAGCACCAGGUCAUCAAAGAUGACCAAGCCG [TheoAX 23 #SwitchBubble]	apparent KD of MS2 coat protein	9.35 nM
AUGUCGUUGAAUAUAGCGGCUUGGAGUGAUACCAGAAUGAUCCAAUUCCCUUGGCAGCAUUACAUGAGGAUCACCCAUGUUCCAG [SSTheo A #23]	apparent KD of MS2 coat protein	24.1 nM
UCGGGCAGAGCGGCCGCCACUGUAUGGCAUGCGGAUGAAGGAACAUGAGGAUCACCCAUGUAGAUUAGGACCGGGCUUGCGGAGA [p''pmullin]	apparent KD of MS2 coat protein	29.1 nM
AACACACCAAAUGAUACCAGCUACAACAUGAUACAAAACCACAUGAGGAUCACCCAUGUAAGCCCUUGGCAGCAUACUACUGUAA [theeternabot_exclusion_MS2_Theo_B_40]	apparent KD of MS2 coat protein	16.9 nM
CCCAGUUAUAUCAAAGGAAUUAUACUCGAAGGAGCGUCAUAGUAGGCAGGUAGGUCGCGAGACAUGAGGAUCACCCAUGUAGAGA [pxpmullin]	apparent KD of MS2 coat protein	37.6 nM
GUACAUGAGGAUCACCCAUGUAUAGUUGAAGGAGCGACCGGAGGGUCAGGUAGGUCGCAGCACAUGGCGUCAACCCGUGUAUGCC [#1 Exclusion - Arginine A Attempt #25 (Inspired by Pi)]	apparent KD of MS2 coat protein	15.2 nM
UAAAACAUGAGGAUCACCCAUGUAAUUGAUACCAGAGUGAUGAUCCUCCCUUGGCAGCAAAUAACGCAUUGGAAACAAUGCGAAA [Mat - Same State Theophlline A - Mod of Eli - D26]	apparent KD of MS2 coat protein	51.4 nM
ACAUUUAACUGAAGGAGCGUGAUAAACAUGAGGAUCACCCAUGUACCAAAGAUUUUCAGAUCACAGGUAGGUCGCAGACUAAUGA [JR_ExcArginiB_Sub015]	apparent KD of MS2 coat protein	12.8 nM
AGUUCCAGGUCGGCCGCCACUGGCAUGGCCGGUCCUCGGACUUACAUGAGGAUCACCCAUGUGAACAGGACCGGGACCGCAUGGG [Exclusion Tryptophan B GF 24]	apparent KD of MS2 coat protein	26.1 nM
GUACCACAGUCGGCCGCCACUAAGUUGUAUUCCAGCAGGACGAAACAUGAGGAUCACCCAUGUCCUAGGACCGGGACUUCCGUCG [theeternabot_sameState_MS2_Trp_B_41]	apparent KD of MS2 coat protein	16.9 nM
ACGAACGCACCUGAGGAACACCCAGGUGAUACCAGCCUGGAAACAGGCCCUUGGCAGCACCUAAAAUAAAGGUAACGUUCGAAUA [TheoAX8 #MicroSwitchBubble #AlternativeMS2]	apparent KD of MS2 coat protein	171 nM
AAAUAAACCUCGGCCGCCACUCGCCAUGAGGAUCACCCAUGUAACAUGAGGAUCACCCAUGUACAGAGGACCGGGAGGUCCUAGU [Same State Tryptophan B GF 13]	apparent KD of MS2 coat protein	48.3 nM
CAAGAGUUGUACAUUGUGAGGCGUCGGGAACGAGGACCGGUACGGCCGCCACUCGAAAAUUAACAUGAGGAUCACCCAUGUACAC [theeternabot_exclusion_MS2_Trp_A_35]	apparent KD of MS2 coat protein	36.1 nM
AAUGGGCGAGUAGAGCAUAAUUUCCACUCCCGAGGACCGGUACGGCCGCCACUCGUUCGCUCACAUGAGGAUCACCCAUGUGGUC [theeternabot_exclusion_MS2_Trp_A_17]	apparent KD of MS2 coat protein	24.7 nM
ACAUACAUGAGGAUCACCCAUGUCCAUGUUCGAGGACCGGUACGGCCGCCACUCGCGCGACAGCAUGAGGAACUUGAGGAUCACA [Exclusion Tryptophan A]	apparent KD of MS2 coat protein	39.5 nM
GGGUGGUAGGCGGCCGCCACUGAUUUUCAUUCCUGGAUGACAUGAGGAUCACCCAUGUUUACGGGCAGGACCGGGCCUGCUGUGG [aaaW]	apparent KD of MS2 coat protein	34.8 nM
UCACGUGGGAAUGAUACCAGCCACAUGAGGAUCACCCAUGUGCAUGGUGUGAGCUUCACGGGCCCUUGGCAGCAUUUCAAGUCGC [Agelaus]	apparent KD of MS2 coat protein	39.9 nM
AUAACAUGAGGAUCACCCAUGUAAGCUGAAGGAGCGCUGGAAACAGCAGGUAGGUCGCAGCGGCGACCUUCCUCAUGAAGGUCGC [(M1)-(M2)-(Arg1)-(Arg2)-(A)'-(M)'-(A)''_Design5]	apparent KD of MS2 coat protein	19.2 nM
GCGACACUCACGGCCGCCACUGAUUAGCCCAGUAUGGAGCCCACACAUGAGGAUCACCCAUGUCACAGGACCGGGUGGGUCUAUU [theeternabot_sameState_MS2_Trp_B_23]	apparent KD of MS2 coat protein	22.8 nM
AUAUUAAUCGGAAGGAGCGGUACAUGAGGAUCACCCAUGUGGUAAGCUAGCAGAUCCCGUUACCAGGUAGGUCGCCGAGUUAUGA [XArg-B17]	apparent KD of MS2 coat protein	268 nM
